Test system: Fibroblast
method_description: Multiplex assay against human fibroblast
Type: toxicity, cell-based
condition_summary: 24 h, 1 µM, compound concentration 1 uM, number of replicates 2
experimental_readout: Population Normal (%)
Response body: numeric value in %, unit text excluded.

In: Recorded Population Normal (%) of Cc1cn(CCN2CCN(c3ccccc3-c3cc(C#N)cc(C(=O)NCCCN4CCCC4)c3)CC2)c2ccccc12 , please.
Out: 100

In: Recorded Population Normal (%) of COc1cc(C(N)=O)ccc1Nc1ncc2c(n1)N(CCC(C)C)[C@H](C)C(=O)N2C , please.
Out: 100

In: Recorded Population Normal (%) of O=C1Nc2ccc(C(=O)c3ccco3)cc2C1=Cc1cc(Cl)c(O)c(Cl)c1 [GW406108X] , please.
Out: 100

In: Recorded Population Normal (%) of COc1ccc(F)c(F)c1C(=O)c1cnc(NC2CCN(S(C)(=O)=O)CC2)nc1N [RG-547] , please.
Out: 100

In: Recorded Population Normal (%) of CC(C)c1c(NC(=O)Nc2ccc(Cl)cc2)c(=O)n(-c2ccccc2)n1C , please.
Out: 100

In: Recorded Population Normal (%) of O=C(Nc1ccnc(NC(=O)C2CC2)c1)c1c(Cl)cccc1Cl , please.
Out: 100

In: Recorded Population Normal (%) of COc1ccncc1C(=O)NC(=O)Nc1ccc(-c2ccccc2)c(C(F)(F)F)c1 , please.
Out: 100

In: Recorded Population Normal (%) of O=C1NC(=O)C(c2ccccc2[N+](=O)[O-])=C1Nc1ccc(O)c(Cl)c1 , please.
Out: 100

In: Recorded Population Normal (%) of CC(C)c1cc(-c2ccc(F)c3ccccc23)nc(N)n1 , please.
Out: 100

In: Recorded Population Normal (%) of Cl.Clc1ccc2nsnc2c1NC1=NCCN1 [TIZANIDINE HYDROCHLORIDE] , please.
Out: 100

In: Recorded Population Normal (%) of CNS(=O)(=O)c1ccc(N(C)C)c(Nc2ncnc3cc(OC)c(OC)cc23)c1 , please.
Out: 99

In: Recorded Population Normal (%) of COc1ccc2cc(S(=O)(=O)N[C@H](CC(=O)N[C@H](Cc3ccc(CN4[C@H](C)CCC[C@@H]4C)cc3)C(=O)N(C)C(C)C)c3ccc4c(c3)OCO4)ccc2c1.Cl , please.
Out: 100

In: Recorded Population Normal (%) of CC(C)(C)c1cnc(CSc2cnc(NC(=O)C3CCNCC3)s2)o1 [BMS-387032] , please.
Out: 100

In: Recorded Population Normal (%) of CC(C)NC(=O)[C@H]1CCC[C@H]1Nc1nc(Nc2ccc(C(=O)N(C)C3CCN(C)CC3)cc2)ncc1Cl , please.
Out: 100

In: Recorded Population Normal (%) of CC(C)N1CCN(Cc2cnc(-c3cc(-c4cccc5[nH]ccc45)cc4[nH]ncc34)o2)CC1 [NEMIRALISIB] , please.
Out: 100

In: Recorded Population Normal (%) of Cn1cc(-c2ccc(-c3cncc(Cl)c3N3CCC4(CCNC4=O)CC3)cc2)cn1 , please.
Out: 99

In: Recorded Population Normal (%) of c1ccc2c(-c3coc4cc(-c5ccc(N6CCNCC6)cc5)cnc34)ccnc2c1 , please.
Out: 100

In: Recorded Population Normal (%) of C=CC(=O)Nc1cccc(C)c1Nc1ncc2cc(-c3c(Cl)c(OC)cc(OC)c3Cl)ccc2n1 , please.
Out: 99
